assay: Cytotoxicity against HFF after 7 days by neutral red uptake assay; format: cell-based; conditions: human, HFF cells
reportedMetric: CC50 at 168 h

>>> result("O=c1[nH]c(=O)n([C@H]2C[C@H](O)[C@@H](CO)S2)cc1I")
"> 100 µM"
>>> result("Nc1ccn([C@@H]2S[C@H](CO)[C@@H](O)[C@@H]2O)c(=O)n1")
"> 88 µM"
>>> result("O=c1[nH]c(=O)n([C@H]2C[C@H](O)[C@@H](CO)S2)cc1C(F)(F)F")
"> 100 µM"
>>> result("Cc1cn([C@H]2C[C@H](O)[C@@H](CO)S2)c(=O)[nH]c1=O")
"> 100 µM"
>>> result("Nc1ccn(C[C@@H](CO)OCP(=O)(O)O)c(=O)n1.O.O")
"> 317 µM"
